Reported values of α1 [%] for individual entries
- Tested on: α1 adrenergic receptors (rat cerebral cortex)
- method.summary: Radioligand binding assay, adrenergic α1 receptors
- study.conditions: test compound 1×10^−6 M
- Description: The specific ligand binding to the receptors is defined as the difference between the total binding and the non-specific binding determined in the presence of the excess of unlabelled ligand. The results are expressed as a percent of control specific binding ((measured specific binding/control specific binding)×100) and as a percent inhibition of control specific binding (100−((measured specific binding/control specific binding)×100)) obtained in the presence of the test compounds. […]
observation.type: α1 [%] (%)

                                   compound  observation_type  experimental_result
0  O=S(=O)(N[C@@H]1CCN(CCCc2noc3cc(F)ccc23)C1)c1cc2ccccc2o1 [Compound 214]            α1 [%]                   91
1  CC1(C)Cc2cccc(OCCN3CCC(CNS(=O)(=O)c4ccc5ccccc5c4)C3)c2O1 (stereo not shown) [Compound 114]            α1 [%]                   27
2  O=S(=O)(NC1CCN(CCCc2c[nH]c3ccc(Cl)cc23)C1)c1ccc(F)cc1 (stereo not shown) [Compound 83]            α1 [%]                   23
3  Cn1ccc2c(S(=O)(=O)NCC3CCN(CCOc4cccc5ccccc45)C3)cccc21 (stereo not shown) [Compound 275]            α1 [%]                   53

###

- Tested on: α1 adrenergic receptors (rat cerebral cortex)
- method.summary: Radioligand binding assay, adrenergic α1 receptors
- study.conditions: test compound 1×10^−6 M
Recorded α1 [%] for the following molecules
observation.type: α1 [%] (%)

In [3]: df
Out[3]:
                                   molecule  observation_type  experimental_result
0  O=S(=O)(NC1CCN(CCOc2cccc3ccccc23)CC1)c1ccc2ccccc2c1 [Compound 120]            α1 [%]                   −9
1  Cc1cc(S(=O)(=O)N[C@@H]2CCN(CCCc3noc4cc(F)ccc34)C2)c(C)s1 [Compound 222]            α1 [%]                   92
2  Cc1ccc2sc(S(=O)(=O)N[C@H]3CCN(CCCc4noc5cc(F)ccc45)C3)cc2c1 [Compound 229]            α1 [%]                   89
3  Cc1c(S(=O)(=O)NCC2CN(CCCc3noc4cc(F)ccc34)C2)sc2ccc(Cl)cc12 [Compound 131]            α1 [%]                   70
4  N#Cc1ccc(S(=O)(=O)NC2CCN(CCCc3noc4cc(F)ccc34)C2)cc1 (stereo not shown) [Compound 210]            α1 [%]                   94
5  O=S(=O)(NC1CCN(CCCc2c[nH]c3ccc(Cl)cc23)C1)c1cccc(F)c1 (stereo not shown) [Compound 82]            α1 [%]                   43
6  O=S(=O)(NC1CN(CCOc2cccc3c2OCCO3)C1)c1ccc(F)cc1 [Compound 90]            α1 [%]                  −25

Origin of values: patent US20140135310A1
